Below, each of the compounds is paired with its reported IC50 value.
system: Haemonchus contortus fourth-stage larvae (L4s); assay: L4 motility assay; format: cell-based; details: 72 h, read-out: L4 motility IC50
parameter: IC50 (nM)

1) CO/N=C1\C[C@]2(C[C@@H]3C[C@@H](C/C=C(\C)C[C@@H](C)/C=C/C=C4\CO[C@@H]5[C@H](O)C(C)=C[C@@H](C(=O)O3)[C@]45O)O2)O[C@H](/C(C)=C/C(C)C)[C@H]1C | 20
2) C[C@](C#N)(COc1cc(C#N)ccc1C(F)(F)F)NC(=O)c1ccc(SC(F)(F)F)cc1 | 370

----------
test system: Haemonchus contortus fourth-stage larvae (L4s); experiment: L4 motility assay; format: cell-based; conditions: read-out: L4 motility IC50 (abstract summary)
parameter: IC50

1) O=C(Nc1ccc(Cl)cc1)N1CCCC1c1nc(-c2ccccc2)no1 (stereo not shown) | 0.31 to 12.5 µM

----------
system: microfilariae of Brugia malayi; test: Microfilariae motility assay; assay type: cell-based; settings: 72 h, read-out: motility IC50, B. malayi microfilariae
pIC50: −log10 of the molar value.
parameter: pIC50

1) O=C(Nc1ccc(Cl)cc1)N1CCCC1c1nc(-c2ccccc2)no1 (stereo not shown) | ~5.52
